- protocolDetails: Solubility of series A to E drugs in water and 10% Soluplus solution
- Format: physicochemical
- details: 10% Soluplus solution
# Lookup of reported Solubility in 10% Soluplus keyed by entry
propertyMeasured: Solubility in 10% Soluplus (µg/mL)

>>> numericreadout("O=c1c2cccc(F)c2[se]n1CCCCCn1[se]c2c(F)cccc2c1=O [CPD8]")
300
>>> numericreadout("O=c1c2cccc(F)c2[se]n1CCCCn1[se]c2c(F)cccc2c1=O [CPD7]")
250

====

- protocolDetails: Solubility of series A to E drugs in water and 10% Soluplus solution
- Assay type: physicochemical
- details: 10% Soluplus solution
propertyMeasured: Solubility in 10% Soluplus

>>> result("COc1ccc2[se]n(CCCCCCCn3[se]c4ccc(OCCCN=[N+]=[N-])cc4c3=O)c(=O)c2c1")
">1000 µg/mL"
>>> result("COc1ccc2[se]n(Cc3cccc(Cn4[se]c5ccc(O)cc5c4=O)c3)c(=O)c2c1")
">1000 µg/mL"
>>> result("COc1ccc2[se]n(CCCn3[se]c4ccc(O)cc4c3=O)c(=O)c2c1")
">1000 µg/mL"

// provenance: patent US20240173255A1
